So I've got a bunch of compounds here, and I need their Specific activity values.
- System: Rhodococcus sp. FZ4 nitrile hydratase
- Type: cell-based
- RUN_CONDITIONS: culture medium with inducer 0.2% (w/v), 28° C., 3 days; substrate 3-cyanopyridine

NC(=O)c1ccccc1 [Benzamide] = 2.12 μmol/(min × ml × OD610 nm)
CCCC#N [Butyronitrile] = 58.4 μmol/(min × ml × OD610 nm)
CCCC(N)=O [Butyramide] = 73.2 μmol/(min × ml × OD610 nm)
CCCCC(N)=O [Valeramide] = 57.5 μmol/(min × ml × OD610 nm)
CC=CC#N [Crotononitrile] = 49.4 μmol/(min × ml × OD610 nm)

Please go through the list and note Specific activity for each compound.
1. NC(N)=O [Urea]
2. C=CC#N [Acrylonitrile]
3. CC(C)C#N [Isobutyronitrile]
4. CC=CCC#N [3-Pentenenitrile]
5. C=C(C)C(N)=O [Methacrylamide]

["0.918 μmol/(min × ml × OD610 nm)", "1.81 μmol/(min × ml × OD610 nm)", "52.1 μmol/(min × ml × OD610 nm)", "13.4 μmol/(min × ml × OD610 nm)", "125 μmol/(min × ml × OD610 nm)"]

Please go through the list and note Specific activity for each compound.
1. N#CCC(N)=O [Cyanoacetamide]
2. CC(C)CC#N [Isovaleronitrile]

6.50 μmol/(min × ml × OD610 nm)
23.2 μmol/(min × ml × OD610 nm)

Please go through the list and note Specific activity for each compound.
1. CC(C)C(N)=O [Isobutyramide]
2. NC(=O)c1ccncc1 [Isonicotinamide]
3. CCCCCC#N [Caprononitrile]
4. C=C(C)C#N [Methacrylonitrile]
5. CCC(N)=O [Propionamide]

109 μmol/(min × ml × OD610 nm)
2.17 μmol/(min × ml × OD610 nm)
23.0 μmol/(min × ml × OD610 nm)
71.5 μmol/(min × ml × OD610 nm)
28.7 μmol/(min × ml × OD610 nm)

---

- Tested on: purified Rhodococcus sp. FZ4 nitrile hydratase
- Assay type: biochemical
MEASURE_NAME: Relative activity (%)
Give bare numbers, in %.

Previously resolved entries follow.
O=C(O)c1cc(SSc2ccc([N+](=O)[O-])c(C(=O)O)c2)ccc1[N+](=O)[O-] = 93.4
c1cnc2c(c1)ccc1cccnc12 = 106
NCCS = 99.1
O=C(O)CI [Iodoacetate] = 96.7
O=S(=O)(O)c1cc(O)c(O)c(S(=O)(=O)O)c1 = 114

Next compound, Relative activity to be filled in.
Name the recorded Relative activity of the compound listed here: CCN1C(=O)C=CC1=O [N-Ethylmaleinimide]
95.3

---

- Test system: purified Rhodococcus sp. FZ4 nitrile hydratase
- PROTOCOL_NOTES: Substrate specificity of purified nitrile hydratase
- Type: biochemical
So I've got a bunch of molecules here, and I need their Relative activity values.
Numbers only, in %.

Previously resolved entries follow.
N#Cc1ccc(Cl)cc1 [p-Chlorobenzonitrile] = 8.31
N#Cc1cccc(Cl)c1 [m-Chlorobenzonitrile] = 66.5

Next molecule, Relative activity to be filled in.
Name the recorded Relative activity of the molecule listed here: N#Cc1ccncc1 [4-Cyanopyridine]
92.8
